Values from paper PMC9317861

assay: Alamar Blue cell viability/cytotoxicity assay, Caco-2; format: cell-based, human; details: human; Caco-2, 600 µM, 48 h; read-out: cell viability (% of control)
property_name: viability at 48 h, 600 µM (%)
Please respond with the number in % and leave the unit unwritten.

For `O=[N+]([O-])NC1=NCCN1Cc1ccc(Cl)nc1` , what is its reported viability at 48 h, 600 µM? 68.5

====

test system: RAW 264.7 cells; experiment: Alamar Blue cell viability/cytotoxicity assay, RAW 264.7; format: cell-based; settings: Mus musculus, RAW264.7, 48 h
property_name: IC50 (µM)
// note: answer is a bare numeric in µM

Look at this compound and give its reported IC50. `O=[N+]([O-])NC1=NCCN1Cc1ccc(Cl)nc1` 307

====

tested on: SK-MEL-5 cells; assay: Alamar Blue cell viability/cytotoxicity assay, SK-MEL-5; type: cell-based, human; details: Homo sapiens; SK-MEL-5, 48 h exposure, mean ± S.D.; read-out: IC50
property_name: pIC50
pIC50 is a log-scale quantity: -log10 of the concentration expressed in molar.

Quick one: pIC50 of C=CCOC(Cn1ccnc1)c1ccc(Cl)cc1Cl (stereo not shown) [Imazalil, imazalil] ? 4.12

====

test system: Caco-2 cells; assay: Alamar Blue cell viability/cytotoxicity assay, Caco-2; type: cell-based, human; conditions: Homo sapiens, Caco-2, 24 h
property_name: IC50

> print(dat)
                             molecule  reported.result
1  O=[N+]([O-])NC1=NCCN1Cc1ccc(Cl)nc1        > 1000 µM

In the following, a different molecule is considered.
Requested read-out: IC50. Entry: O=C(O)CNCP(=O)(O)O [Glyphosate, N-phosphonomethyl-glycine] > 1000 µM

====

test: Alamar Blue cell viability/cytotoxicity assay, SK-MEL-5; format: cell-based, human; settings: human; SK-MEL-5, 50 µM, 48 h
property_name: viability at 48 h, 50 µM

# query: viability at 48 h, 50 µM of entry C=CCOC(Cn1ccnc1)c1ccc(Cl)cc1Cl (stereo not shown) [Imazalil, imazalil] ~80%
